test system: DAPK3; conditions: concentration: 1 μM, replicates: in singlicate; n = 1;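 also: KINOMEscan kinase panel screen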
Decision: %Inh >= 8% yields true (1), all other cases yield false (0).

compound=C[C@@H](Oc1cc(-n2cnc3ccc(NC(=O)NC(C)(C)C)cc32)sc1C(N)=O)c1ccccc1Cl qualitativelabel="true (1)"
compound=COc1ccc(Nc2ncc(C#N)c(Nc3ccccc3C(N)=O)n2)cc1N1CCN(C)CC1.Cl qualitativelabel="true (1)"
compound=CCn1cnc2c(N)ncnc21 qualitativelabel="true (1)"
compound=[2H]C([2H])(c1cccc(C(F)(F)F)c1C)n1ccn2c(=O)nc(N3CCOCC3)cc12 qualitativelabel="false (0)"
compound=c1ccc(-c2cc(-c3c[nH]nc3-c3ccccn3)ccn2)cc1 qualitativelabel="true (1)"
compound=CCc1nc(-c2cccc(C)c2)c(-c2ccnc(NCc3ccccc3)c2)s1 qualitativelabel="false (0)"
compound=Cc1ccc(C(=O)NCC(N)=O)cc1-n1c(C)cc(OCc2ccc(F)cc2F)c(Br)c1=O qualitativelabel="true (1)"
compound="Cc1nnc(-c2ccc3occ(-c4ccc(C(C)O)cc4)c3c2)o1 (stereo not shown)" qualitativelabel="false (0)"
compound=NS(=O)(=O)c1cccc(-c2ccc3ncc(N4CCOCC4)nc3c2)c1 qualitativelabel="true (1)"
compound=O=C1Cc2cc(Nc3nc(NCc4cccc(S(=O)(=O)C(F)(F)F)c4)ncc3C(F)(F)F)ccc2N1 qualitativelabel="false (0)"
compound=NS(=O)(=O)c1cccc(-c2ccc3nccc(-c4cccc(S(N)(=O)=O)c4)c3c2)c1 qualitativelabel="false (0)"
compound=N#Cc1ccc(-c2cc(-c3c[nH]nc3-c3ccccn3)ccn2)cc1 qualitativelabel="true (1)"
compound=O=C(c1ccc(-c2cc(-c3c[nH]nc3-c3ccccn3)ccn2)cc1)N1CCOCC1 qualitativelabel="true (1)"
compound=Cc1cccc(-c2nc(-c3ccc(S(C)(=O)=O)cc3)sc2-c2ccncc2)c1 qualitativelabel="false (0)"
compound=O=C(NCCNc1ccnc(Nc2ccc(F)cc2)n1)Nc1ccccc1F qualitativelabel="true (1)"
compound=CC(C)Oc1ccc2c(-c3ccnc(Nc4ccc(N5CCN(C)CC5)cc4)n3)cnn2n1 qualitativelabel="true (1)"
compound=Fc1ccc(-c2ncn(CCCN3CCOCC3)c2-c2ccccn2)cc1 qualitativelabel="true (1)"
compound="COc1cc(Nc2nccc(N3CCC(NC(=O)c4cccc(NC(C)=O)c4)C3)n2)cc(OC)c1OC (stereo not shown)" qualitativelabel="true (1)"
